Every entry's value here was drawn from paper PMC9709406.

# System: KYSE70 cells
# procedureText: MTT assay, KYSE70
# Format: cell-based, human
# testContext: KYSE70, concentration 50
Entries and their inhibition (1 minus fraction of control)
Please respond with just the number, no unit label.

Solved cases below.
[[record]]
compound = "COc1ccccc1-n1cc(-c2cccc(Nc3ncnc4cc5c(cc34)OCCOCCOCCO5)c2)nn1 [compound 3d]"
property = "inhibition (1 minus fraction of control)"
reading = 0.9461

[[record]]
compound = "Clc1ccc(-n2cc(-c3cccc(Nc4ncnc5cc6c(cc45)OCCOCCOCCO6)c3)nn2)cc1 [compound 3b]"
property = "inhibition (1 minus fraction of control)"
reading = 0.8118

[[record]]
compound = "Fc1ccc(CCn2cc(-c3cccc(Nc4ncnc5cc6c(cc45)OCCOCCOCCO6)c3)nn2)cc1 [compound 3v]"
property = "inhibition (1 minus fraction of control)"
reading = 0.8751

[[record]]
compound = "c1ccc(Cn2cc(-c3cccc(Nc4ncnc5cc6c(cc45)OCCOCCOCCO6)c3)nn2)cc1 [compound 3r]"
property = "inhibition (1 minus fraction of control)"
reading = 0.8197

[[record]]
compound = "Clc1ccccc1-n1cc(-c2cccc(Nc3ncnc4cc5c(cc34)OCCOCCOCCO5)c2)nn1 [compound 3e]"
property = "inhibition (1 minus fraction of control)"
reading = 0.9273

[[record]]
compound = "COc1cccc(-n2cc(-c3cccc(Nc4ncnc5cc6c(cc45)OCCOCCOCCO6)c3)nn2)c1 [compound 3i]"
property = "inhibition (1 minus fraction of control)"
reading = 0.9925


Kindly review the next compound as well.
**Q:** Name the reported inhibition (1 minus fraction of control) value associated with the compound Cc1ccccc1Cn1cc(-c2cccc(Nc3ncnc4cc5c(cc34)OCCOCCOCCO5)c2)nn1 [compound 3n]
**A:** 0.9636
